Tested on: K4 kissing-loop RNA reporter
PROCEDURE_SUMMARY: apparent KD of K4 kissing-loop reporter; higher = weaker reporter binding
CONDITION_NOTES: Eterna round: R107; input ligand: tryptophan 2.4 mM
apparent KD of K4 kissing-loop reporter values, listed per item
Reply with just the number (in nM).

Recorded results for 2 sequences are shown here.
[[record]]
seq_text = "CGAGCUUCCUGGGAUACCAGUCGGAGUCUCAGAGCUCGGAGUGAUGUUCUGGGAUGUUUCGGCCCUUGGCAGCUCUGGGACUCCU [#2 Exclusion - Theophylline B Attempt #20 (HarryS)]"
reading_unit = "nM"
experimental_result = 797

[[record]]
seq_text = "ACGAUUUACAGAAGGAGCGUGUAUUUAUCUACAAUUUUCUUAGCGAGUGAUGUUCGUUAUACACAGGUAGGUCGCUGUAUAUCGA [JR_ExcArginiB_Sub013]"
reading_unit = "nM"
experimental_result = 174


Now consider the entry below.
Response field apparent KD of K4 kissing-loop reporter (K4 kissing-loop RNA reporter) for item ACAUGACGUGCGCCCGUCAUGAAACGUGCAAAGGAUAUUCCGUUUUGAAGAAGGUUGCGGUAGUGUAGUGAUGUUGCUCCGCCGU [theeternabot_sameState_KL_FMN_A_11] : 347

###

Tested on: MS2 coat protein
PROCEDURE_SUMMARY: apparent KD of MS2 coat protein; designed switch direction (-1 OFF switch, 1 ON switch): -1; higher = weaker reporter binding
CONDITION_NOTES: input ligand: none
Here, each record is paired with measured apparent KD of MS2 coat protein data.
Numeric answer only, unit nM assumed.

Study these solved cases before continuing.
[[record]]
seq_text = "UCGUUCCGUGUAGGAUAUUGGCCUCCCUCGGGCCGAGAAGGACAUGAGGAUCACCCAUGUAUGUUAUUAUCGCGCGUGGCGCAU [Design 89] (Eterna round: R96, puzzle: Exclusion NG 1)"
assay_system = "MS2 coat protein"
experimental_result = 20.8

[[record]]
seq_text = "GUCUAACAUGAGGAUCACCCAUGUCAGGAUAUGCGAAUUUCAUCAAAAGAUGAAAUUUGCAGAAGGGACUAGAC [Omei Ex1 A28] (Eterna round: R97, puzzle: Exclusion 1)"
assay_system = "MS2 coat protein"
experimental_result = 24.1


Consider the record given below.
Form: sequence = UUGAUAUGAGGAUAUUGCUAAGUCGACAUGAGGAUCACCCAUGUGAAGGAAUGUUUAUUGCAAGAAGGCGUCGCGG [Eternabot (L1) Solution 10] (Eterna round: R97, puzzle: Exclusion 5) ; apparent KD of MS2 coat protein = 60.5

###

apparent KD of MS2 coat protein values for the sequences below.
System: MS2 coat protein
PROCEDURE_SUMMARY: apparent KD of MS2 coat protein; higher = weaker reporter binding
CONDITION_NOTES: Eterna round: R107; input ligand: arginine 13.2 mM

[[record]]
seq_text = "UUACCGUAAGGUAUACCGGUCCACAAUAAUCGAGGACCGGUACGGCCGCCACUCGAUGUGUGAUCACAUGAGGAUCACCCAUGUA [Tryptophan A 20]"
assay_system = "MS2 coat protein"
experimental_result = "99.4 nM"


Lookup result for UCGGGCCUUCUUUCUUGGCCCGUUACAGAAGGAGCGUCGGAAAUGACAGGUAGGUCGCUGAGAACAUGAGGAUCACCCAUGUAUU [SSAA #14] ; measured apparent KD of MS2 coat protein: 16.8 nM

Record AAUCGUAAGGCGGCCGCCACUACACAUGAGGAUCACCCAUGUCUCGCAGGCUUGCGUUGGGUUAGUAGGACCGGGCCAGUAAUAA [Exclusion - Tryptophan B (Freestyle 15)] . Reported apparent KD of MS2 coat protein: 25.8 nM

Input AGAGCAUUGACGGCCGCCACUCAUGUCACAUGAGGAUCACCCAUGUGAUGGGUGAUAGCCCGGUCGAGGACCGGGUCAAUGCUCA [Omei Tryp SS B v5] . Output apparent KD of MS2 coat protein: 14.3 nM

###

A collection of sequences and their measured apparent KD of MS2 coat protein
Test system: MS2 coat protein
PROCEDURE_SUMMARY: apparent KD of MS2 coat protein; higher = weaker reporter binding
CONDITION_NOTES: Eterna round: R107; input ligand: theophylline 2 mM

Reference set (3 entries):
[[record]]
seq_text = "CGUAUUGGAAACAGUACGAGUGAUCCGGUCCGAGGACCGGUACGGCCGCCACUCGAUAUAAAUAAACAUGAGGAUCACCCAUGUA [Ex Tryptophan A 12]"
assay_system = "MS2 coat protein"
value_type = "apparent KD of MS2 coat protein"
experimental_result = "20.3 nM"

[[record]]
seq_text = "AUAAAAGGGUUAUAUAGAUUUAGGUCCAGUCGAGGACCGGUACGGCCGCCACUCGUACUGAAAUACAUGAGGAUCACCCAUGUUA [JR_SSTryptoA_Sub006]"
assay_system = "MS2 coat protein"
value_type = "apparent KD of MS2 coat protein"
experimental_result = "22.9 nM"

[[record]]
seq_text = "CACAUGAGGAUCACCCAUGUCUGAACUGAAGGAGCGCUAAAUAAGGCAGGUAGGUCGCGGAAUCUUGUGUGCAUAUGCACACGGG [9.T]"
assay_system = "MS2 coat protein"
value_type = "apparent KD of MS2 coat protein"
experimental_result = "31.2 nM"


Lab note: CGAAAGCUCCUUAUGUGCUUUCGACUGGAAGGAGCGAGCGAAAGCUCAGGUAGGUCGCCAGAAACAUGAGGAUCACCCAUGUAAU [(A)''-(M)'-(A)'(Arg1)-(Arg2)-(M1)-(M2)_Design9] gave apparent KD of MS2 coat protein of 27.2 nM

The sequence ACUUGAUACUGAAGGAGCGUCGGAUAAACUCGCACAUGAGGAUCACCCAUGUAUAUGAAUCGGCAGGUAGGUCGCAGUAUCGAGU [#21 Same State - Arginine B] showed apparent KD of MS2 coat protein equal to 17.1 nM

get_value(item= CCUAUGCAGUCGGCCGCCACUGAACAUGAGGAUCACCCAUGUAAUUAAAAUUAAGAUCCUGAAAUCAGGACCGGGACUGUAUAGG [Ex Tryptophan B 4] , readout=apparent KD of MS2 coat protein) returns 140 nM

So for GCACGGGCGAUCGGCACUUUUACUAAUAUACGAGGACCGGUACGGCCGCCACUCGAGCUAAGACAUGAGGAUCACCCAUGUAACG [theeternabot_exclusion_MS2_Trp_A_41] , the logged apparent KD of MS2 coat protein turned out to be 30.4 nM

Per the record, GGUUACUCUACGGCCGCCACUGUAAAGUAAAGAUUACUGUACAUGACAUGAGGAUCACCCAUGUACAGGACCGGGUAGUGUAACC [Tryptophan B 15] has apparent KD of MS2 coat protein of 35.5 nM

ACAUUUAACUGAAGGAGCGUGAUAAACAUGAGGAUCACCCAUGUACCAAAGAUUUUCAGUUCACAGGUAGGUCGCAGACUAAUGA [JR_ExcArginiB_Sub016] has a reported apparent KD of MS2 coat protein of 11.5 nM

###

System: MS2 coat protein
PROCEDURE_SUMMARY: apparent KD of MS2 coat protein; designed switch direction (-1 OFF switch, 1 ON switch): -1; higher = weaker reporter binding
CONDITION_NOTES: input ligand: FMN 200 uM
Listed here are sequences together with their documented apparent KD of MS2 coat protein.
The figure you give is taken to be in µM; do not add the unit.

[[record]]
seq_text = "CAUUGUUAUCGAGGAUAUCGUAUUGAGAUACUACGAGAAGGCGGACUAAACAUGAGGAUCACCCAUGUGAGACGGAUGCUUGGG [Ex NG1 #33] (Eterna round: R96, puzzle: Exclusion NG 1)"
assay_system = "MS2 coat protein"
experimental_result = 0.059


The sequence identified as UAUCCACAUGAGGAUCACCCAUGUGAGGAUAUGUCCAUAUUCGGCAAAUCGGAUAUGGACAGAAGGCACACCGG [JR_Exclusion1_Sub011] (Eterna round: R96, puzzle: Exclusion 1) registered its apparent KD of MS2 coat protein at 0.114

Entry under test: CUUUGGUCAGGAUAUGGUGGGCUGGUCGCGCGGCCGGGUGGCCAGAAGGGACAUGAGGAUCACCCAUGUACGGC [excls4-X] (Eterna round: R96, puzzle: Exclusion 4) . Its apparent KD of MS2 coat protein was 0.106

apparent KD of MS2 coat protein reported for this sequence AACGUGCUGCGAGGAUAUACAUGAGGAUCACCCAUGUGGAUGUCUGAGGCAAAGCCUCAGACAAUGUAGAAGGCGCAGUACGAA [Mat - Exclusion NG 2 - Mod of JL - D57] (Eterna round: R96, puzzle: Exclusion NG 2) : 0.0725

###

Test system: K4 kissing-loop RNA reporter;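 also: bound reporter read as fluorescence of individual clusters on recovered sequencing chips by microscopy, with normalized cluster intensities fitted with a binding model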
PROCEDURE_SUMMARY: apparent KD of K4 kissing-loop reporter; higher = weaker reporter binding
CONDITION_NOTES: Eterna round: R107; input ligand: none
VALUE_TYPE: apparent KD of K4 kissing-loop reporter (nM)
Record the value in nM, omitting the unit from your answer.

# count of solved cases: 4
[[record]]
seq_text = "AAGCAGUCACCCGAAGCCAUCGAAGAUGGACGAGGACCGGUACGGCCGCCACUCGGAGUGAUGUUCCGAAGACUGCAAAAUAAAA"
experimental_result = 302

[[record]]
seq_text = "UAUGAAGGUGGAGGAUAUUGAUUGAAUCUUGGUCUGGAGUGAUGUUCCGGGAAGCCUUGGAUUCAUCGAGAAGGCCAAGGAUAGU [Extra 1]"
experimental_result = 307

[[record]]
seq_text = "GGCACUUUUGGUAGAAAACAUCUACCUCUAUAGGAUAUGCCGAAAGGCAGAAGGAUAGACCUACAGAGUGAUGUUCUGCGUGCCU"
experimental_result = 447

[[record]]
seq_text = "UUGCGUCUCUGAGGAUAUCAGAACAGAGUGAUGUUCUGUCAACGCCCAGUGAUGUUGGAUGCGAUCUGAGAAGGCAGUGGGCGCG [Same State FMN B GF 10]"
experimental_result = 219


Lab note: ACAAAAGUGAUGUUUUUGAACGUGCGCGAUACCAGAAAUGUCUUCUUCCCUUGGCAGCGCUAUUACUUGUAAGAAAGUACGUUUC [theeternabot_sameState_KL_Theo_A_17] gave apparent KD of K4 kissing-loop reporter of 870
